pIC50: −log10 of the molar value.
pIC50 tested on PIM1 (human): recorded values

[
  {
    "Molecule": "CN(C)C1=NC(=O)/C(=C/c2ccc(-c3ccc(S(N)(=O)=O)cc3)o2)S1",
    "Censoring operator": "=",
    "pIC50": 5.72
  },
  {
    "Molecule": "N=C1NC(=O)/C(=C/c2ccc(-c3ccc4c(C(=O)Nc5ccc(N6CCNCC6)cc5)cccc4c3)o2)S1",
    "Censoring operator": "=",
    "pIC50": 6.88
  },
  {
    "Molecule": "N=C1NC(=O)/C(=C/c2ccc(-c3ccc4c(C(=O)Nc5cccc(C(F)(F)F)c5)cccc4c3)o2)S1",
    "Censoring operator": "<",
    "pIC50": 5.00
  },
  {
    "Molecule": "O=C1NC(=S)S/C1=C\\c1ccc(-c2cccc3ccccc23)o1",
    "Censoring operator": "=",
    "pIC50": 5.79
  },
  {
    "Molecule": "NS(=O)(=O)c1ccc(-c2ccc(/C=C3\\SC(=S)NC3=O)o2)cc1",
    "Censoring operator": "=",
    "pIC50": 6.52
  },
  {
    "Molecule": "O=C1NC(=O)/C(=C/c2ccc(-c3ccc(C(=O)Nc4ccc(N5CCNCC5)cc4)cc3)o2)S1",
    "Censoring operator": "=",
    "pIC50": 6.61
  },
  {
    "Molecule": "O=C1NC(=O)/C(=C/c2ccc(-c3ccc4c(C(=O)Nc5cccc(C(F)(F)F)c5)cccc4c3)o2)S1",
    "Censoring operator": "=",
    "pIC50": 5.04
  },
  {
    "Molecule": "CS(=O)C1=NC(=O)/C(=C/c2ccc(-c3ccc(S(N)(=O)=O)cc3)o2)S1 (centres undefined)",
    "Censoring operator": "=",
    "pIC50": 6.53
  },
  {
    "Molecule": "CCN1CCN(Cc2cc(NC(=O)c3cccc4cc(-c5ccc(/C=C6\\SC(=O)NC6=O)o5)ccc34)cc(C(F)(F)F)c2)CC1",
    "Censoring operator": "=",
    "pIC50": 6.11
  }
]

All values here come from the kinase profiling compilation of Christmann-Franck et al. (2016).
